Measurement notes: Plasma protein binding, equilibrium dialysis, mouse plasma
Assay type: in vitro ADME
Run parameters: pH 7.4, equilibrium dialysis (RED) 4 hours at 37° C., read-out: Plasma protein binding, fu, Mouse
Assay readout: fraction unbound at 4 h, 10 μM

{"Compound": "CC(NS(C)(=O)=O)c1cccc2c(-c3cc(Cl)cc(Cl)c3)c(C(=O)O)[nH]c12 (stereo not shown) [IC-2]", "Reported measurement": "< 0.005"}
{"Compound": "CC(c1cccc2c(-c3ccc(CS(C)(=O)=O)c(F)c3)c(C(=O)O)[nH]c12)N(C)C(=O)c1ccc(CN)cc1 (stereo not shown) [IC-97]", "Reported measurement": "0.05 to 0.25"}
{"Compound": "CC(C)c1cccc2c(-c3cc(Cl)cc(Cl)c3)c(C(=O)O)[nH]c12 [Prior Art Compound 76, reference compound]", "Reported measurement": "< 0.005"}
{"Compound": "CC(c1cccc2c(-c3ccc(CS(C)(=O)=O)c(F)c3)c(C(=O)O)[nH]c12)n1cc(CCC2(N)CC2)oc1=O (stereo not shown) [IC-74]", "Reported measurement": "0.05 to 0.25"}

====

Measurement notes: Plasma protein binding, equilibrium dialysis, human plasma
Format: in vitro ADME
Run parameters: pH 7.4, equilibrium dialysis (RED) 4 hours at 37° C., read-out: Plasma protein binding, fu, Human

{"Molecule": "C[C@@H](c1cccc2c(-c3ccc(CS(C)(=O)=O)c(F)c3)c(C(=O)O)[nH]c12)N1CC2(CN(C(=N)N)C2)OC1=O", "fraction unbound at 4 h, 10 μM": "> 0.25"}
{"Molecule": "C[C@@H](c1cccc2c(-c3cccnc3)c(C(=O)O)[nH]c12)N1C[C@]2(C[C@@H](CN)C2)OC1=O", "fraction unbound at 4 h, 10 μM": "0.005 to 0.05"}
{"Molecule": "CC(NC(=O)[C@H]1CC[C@H](CN)CC1)c1cccc2c(-c3ccc(CS(C)(=O)=O)c(F)c3)c(C(=O)O)[nH]c12 (mixture of isomers)", "fraction unbound at 4 h, 10 μM": "0.05 to 0.25"}
{"Molecule": "C[C@@H](c1cccc2c(-c3ccnc(N)c3)c(C(=O)O)[nH]c12)N1C[C@]2(C[C@@H](CN)C2)OC1=O", "fraction unbound at 4 h, 10 μM": "> 0.25"}
{"Molecule": "C[C@@H](c1cccc2c(-c3ccc(NS(C)(=O)=O)c(C#N)c3)c(C(=O)O)[nH]c12)N1C[C@]2(C[C@@H](CN)C2)OC1=O", "fraction unbound at 4 h, 10 μM": "0.05 to 0.25"}
{"Molecule": "C[C@@H](c1cccc2c(-c3ccc(CS(C)(=O)=O)c(F)c3)c(C(=O)O)[nH]c12)n1cc(CN2CC(N)C2)oc1=O", "fraction unbound at 4 h, 10 μM": "0.05 to 0.25"}
{"Molecule": "CC(Oc1ccc(CN)cc1)c1cccc2c(-c3ccc(CS(C)(=O)=O)c(F)c3)c(C(=O)O)[nH]c12 (stereo not drawn)", "fraction unbound at 4 h, 10 μM": "0.05 to 0.25"}
{"Molecule": "COc1cc(-c2c(C(=O)O)[nH]c3c([C@H](C)N4C[C@]5(C[C@@H](CN)C5)OC4=O)cccc23)cnc1O", "fraction unbound at 4 h, 10 μM": "> 0.25"}
{"Molecule": "CC(OCC1CCNCC1)c1cccc2c(-c3ccc(CS(C)(=O)=O)c(F)c3)c(C(=O)O)[nH]c12 (stereo not drawn)", "fraction unbound at 4 h, 10 μM": "0.05 to 0.25"}
{"Molecule": "CC(c1cccc2c(-c3ccc(CS(C)(=O)=O)c(F)c3)c(C(=O)O)[nH]c12)n1cc(CN)oc1=O (stereo not drawn)", "fraction unbound at 4 h, 10 μM": "> 0.25"}
{"Molecule": "C[C@@H](c1cccc2c(-c3ccc(=O)[nH]c3)c(C(=O)O)[nH]c12)N1C[C@]2(C[C@@H](CN)C2)OC1=O", "fraction unbound at 4 h, 10 μM": "0.05 to 0.25"}
{"Molecule": "C[C@@H](c1cccc2c(-c3ccc(CS(C)(=O)=O)c(F)c3)c(C(=O)O)[nH]c12)N1CC2(CCC(N)CC2)OC1=O (stereo partly drawn)", "fraction unbound at 4 h, 10 μM": "> 0.25"}
{"Molecule": "C[C@@H](c1cccc2c(-c3ccc(NS(C)(=O)=O)c(C#N)c3)c(C(=O)O)[nH]c12)n1cc(CN2CC(N)C2)oc1=O", "fraction unbound at 4 h, 10 μM": "0.05 to 0.25"}
{"Molecule": "CC(c1cccc2c(-c3ccc(CS(C)(=O)=O)c(F)c3)c(C(=O)O)[nH]c12)N1C(=O)CN(CCCN)C1=O (stereo not drawn)", "fraction unbound at 4 h, 10 μM": "0.05 to 0.25"}
{"Molecule": "C[C@@H](c1cccc2c(-c3cncc(O)c3)c(C(=O)O)[nH]c12)N1C[C@]2(C[C@@H](CN)C2)OC1=O", "fraction unbound at 4 h, 10 μM": "0.05 to 0.25"}
{"Molecule": "C[C@@H](c1cccc2c(-c3ccncc3)c(C(=O)O)[nH]c12)N1C[C@]2(C[C@@H](CN)C2)OC1=O", "fraction unbound at 4 h, 10 μM": "0.005 to 0.05"}
{"Molecule": "C[C@@H](c1cccc2c(-c3ccc(CS(C)(=O)=O)c(F)c3)c(C(=O)O)[nH]c12)n1cc(CCCN)oc1=O", "fraction unbound at 4 h, 10 μM": "0.05 to 0.25"}
{"Molecule": "CC(NC(=O)c1ccc(CN)cc1)c1cccc2c(-c3ccc(CN4CCOCC4)nc3)c(C(=O)O)[nH]c12 (stereo not drawn)", "fraction unbound at 4 h, 10 μM": "> 0.25"}
{"Molecule": "C[C@@H](c1cccc2c(-c3ccc(CS(C)(=N)=O)c(F)c3)c(C(=O)O)[nH]c12)N1C[C@]2(C[C@@H](CN)C2)OC1=O (stereo partly drawn)", "fraction unbound at 4 h, 10 μM": "> 0.25"}
{"Molecule": "C[C@@H](OCc1ccc(CN)cc1)c1cccc2c(-c3ccc(CS(C)(=O)=O)c(Cl)c3)c(C(=O)O)[nH]c12 (single isomer, unassigned)", "fraction unbound at 4 h, 10 μM": "0.005 to 0.05"}
{"Molecule": "CNc1ccc(-c2c(C(=O)O)[nH]c3c([C@H](C)N4C[C@]5(C[C@@H](CN)C5)OC4=O)cccc23)cn1", "fraction unbound at 4 h, 10 μM": "0.05 to 0.25"}
{"Molecule": "C[C@H](OCc1ccc(CN)cc1)c1cccc2c(-c3ccc(CS(C)(=O)=O)c(Cl)c3)c(C(=O)O)[nH]c12 (single isomer, unassigned)", "fraction unbound at 4 h, 10 μM": "0.005 to 0.05"}
{"Molecule": "C[C@@H](c1cccc2c(-c3ccn(C)c(=O)c3)c(C(=O)O)[nH]c12)N1C[C@]2(C[C@@H](CN)C2)OC1=O", "fraction unbound at 4 h, 10 μM": "> 0.25"}
{"Molecule": "C[C@@H](c1cccc2c(-c3ccc(NS(=O)(=O)C4COC4)c(F)c3)c(C(=O)O)[nH]c12)N1C[C@]2(C[C@@H](CN)C2)OC1=O", "fraction unbound at 4 h, 10 μM": "0.05 to 0.25"}
{"Molecule": "C[C@@H](c1cccc2c(-c3cnc(O)c(O)c3)c(C(=O)O)[nH]c12)N1C[C@]2(C[C@@H](CN)C2)OC1=O", "fraction unbound at 4 h, 10 μM": "0.005 to 0.05"}
{"Molecule": "COc1cc(-c2c(C(=O)O)[nH]c3c([C@H](C)n4cc(CN5CC(N)C5)oc4=O)cccc23)ccn1", "fraction unbound at 4 h, 10 μM": "0.05 to 0.25"}
{"Molecule": "CNc1cc(-c2c(C(=O)O)[nH]c3c([C@H](C)N4C[C@]5(C[C@@H](CN)C5)OC4=O)cccc23)ccn1", "fraction unbound at 4 h, 10 μM": "> 0.25"}

====

Test system: NDM-1 (Klebsiella pneumoniae)
Sequence (C7C422 29-270, looked up, species assumed): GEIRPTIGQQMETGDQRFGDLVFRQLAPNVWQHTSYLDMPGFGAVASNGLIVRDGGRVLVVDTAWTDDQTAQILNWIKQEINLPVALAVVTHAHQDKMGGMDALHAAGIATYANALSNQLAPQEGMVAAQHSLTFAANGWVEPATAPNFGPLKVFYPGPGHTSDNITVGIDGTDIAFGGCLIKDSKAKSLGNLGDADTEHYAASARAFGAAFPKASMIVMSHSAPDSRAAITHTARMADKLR
Measurement notes: MBL inhibition, FC-5 fluorescence assay, NDM-1
Format: biochemical
Run parameters: FC-5 cephalosporin substrate, fluorescence; ranges of obtained pIC50; read-out: pIC50 NDM-1 (converted)
Each entry below carries its reported IC50.
Assay readout: IC50

{"Compound": "C[C@@H](c1cccc2c(-c3ccc(NS(C)(=O)=O)c(C#N)c3)c(C(=O)O)[nH]c12)N1C[C@]2(C[C@@H](CN)C2)OC1=O", "Test system": "NDM-1 (Klebsiella pneumoniae)", "Reported measurement": "< 0.1 nM"}
{"Compound": "CC(c1cccc2c(-c3ccc(CS(C)(=O)=O)c(F)c3)c(C(=O)O)[nH]c12)N1CC(CCCN)OC1=O (single isomer, unassigned)", "Test system": "NDM-1 (Klebsiella pneumoniae)", "Reported measurement": "0.1 to 1 nM"}
{"Compound": "C[C@@H](c1cccc2c(-c3ccc(CS(C)(=O)=O)c(F)c3)c(C(=O)O)[nH]c12)n1cc(CN2CC(N)C2)oc1=O", "Test system": "NDM-1 (Klebsiella pneumoniae)", "Reported measurement": "< 0.1 nM"}
{"Compound": "CC(c1cccc2c(-c3ccc(CS(C)(=O)=O)c(F)c3)c(C(=O)O)[nH]c12)N1C(=O)CN(CCCN)C1=O (stereo not drawn)", "Test system": "NDM-1 (Klebsiella pneumoniae)", "Reported measurement": "< 0.1 nM"}
{"Compound": "C/C(=C\\C(=O)NCCc1c[nH]cn1)c1cccc2c(-c3ccc(CS(C)(=O)=O)c(F)c3)c(C(=O)O)[nH]c12", "Test system": "NDM-1 (Klebsiella pneumoniae)", "Reported measurement": "> 10 nM"}
{"Compound": "CC(NC(=O)C[C@H]1CC[C@H](N)CC1)c1cccc2c(-c3ccc(CS(C)(=O)=O)c(F)c3)c(C(=O)O)[nH]c12 (mixture of isomers)", "Test system": "NDM-1 (Klebsiella pneumoniae)", "Reported measurement": "> 10 nM"}
